Assign growth to each entry below.
Test system: HOP-92 NSCLC
protocol-summary: NCI-60 one-dose screen, 48 h (100 = growth as untreated, 0 = no growth, -100 = all killed)
protocol-conditions: 10 µM unless noted
Compounds without any hit were thinned out: in the full panel of roughly 83,000, 20% have a hit.
# value in %; strip the unit string

**Q:** Identify measured growth corresponding to `CC(C)C1=NOC(=O)C1=Cc1cn(-c2cccnc2)nc1-c1ccccc1`
**A:** 92.6

**Q:** Tell me its growth given `N#C/C(C(=O)c1ccccc1)=C1/C(=O)Nc2ccccc21` as the entry.
**A:** 105

**Q:** Supply growth value. Item: CCOC(=O)C(C(C)=O)c1nc2sc3cc(Cl)c(Cl)cc3n2c(=O)c1C#N (centres undefined)
**A:** 76.8

**Q:** # return recorded growth for input CCCCCC1CCCCN1C(=O)OCCCC (centres undefined)
**A:** 113
